# STUDY SYSTEM: SARS-CoV-2 3CL^pro (Severe acute respiratory syndrome coronavirus 2, UniProt P0DTD1)
# Construct: SARS-CoV-2 3CL^pro (Uniprot entry: P0DTD1, virus strain: hCoV-19/Wuhan/WIV04/2019) was cloned, expressed, and purified; GST (cleaved yes); made in house; host or cells: E. coli Lemo21 (DE3)
# EXPERIMENT: SARS-CoV-2 3CLpro fluorogenic (DABCYL/EDANS substrate) inhibition assay
# Assay type: biochemical
# RECORDED CONDITIONS: 0.5 µM 3CLpro, 30 min pre-incubation with inhibitor at RT, 50 µM substrate, 37 °C, pH 7.2, 1 mM TCEP; mean ± SD, n = 3; read-out: IC50 [µM] ± STD
# Description: The SARS-CoV-2 3CL^pro activity assay was performed using DABCYL-KTSAVLQ/SGFRKME-EDANS (Bachem, Switzerland) as substrate. […] The IC50 value was calculated by plotting the initial velocity against various concentrations of the combined molecules using a dose-response curve in GraphPad Prism5 software (Tecan, Männedorf, Switzerland). […]
Positions of bridges follow the written chain, without caps; N, C: chain ends. No end group written: not given here.
QUANTITY MEASURED: IC50 (µM)
Numbers only, in µM.

Recall the recorded IC50 for YKQCHKKGGHCFPKEKICLPPSSDFGKMDCRWRWKCCKKGSG (disulfide 4-36, 11-30, 18-37) [Crotamine] with SARS-CoV-2 3CL^pro (Severe acute respiratory syndrome coronavirus 2, UniProt P0DTD1) and state it.
40
